# credit: PubChem BioAssay (NCI)

# System: KM12 colon
# assay_summary: NCI tumour cell line growth inhibition, 48 h
Please provide measured TGI for the entries that follow.

[
  {
    "molecule": "c1cc(OCCCCCOc2cccc(-c3nc4ccccc4[nH]3)c2)cc(-c2nc3ccccc3[nH]2)c1",
    "system_under_test": "KM12 colon",
    "TGI": "> 100 µM"
  },
  {
    "molecule": "COC(=O)C1=C(OC)C(=P2(c3ccccc3)CC(c3ccccc3)=C2c2ccccc2)C(C(=O)OC)=C1C(=O)OC (stereo not given)",
    "system_under_test": "KM12 colon",
    "TGI": "> 100 µM"
  },
  {
    "molecule": "CCN(CC)/[N+]([O-])=N/OS(=O)(=O)N(C)C",
    "system_under_test": "KM12 colon",
    "TGI": "> 100 µM"
  },
  {
    "molecule": "Nc1nccc(NCC2(CO)CC(CCc3ccccc3)C2)n1 (stereo not given)",
    "system_under_test": "KM12 colon",
    "TGI": "41.7 µM"
  }
]

Pending molecule:
Incoming: Item under review: Cc1nc2ccc(S(=O)(=O)O)cc2c(=O)n1-c1ccc(C(=O)NN2C(=O)C(Cl)C2c2cccs2)cc1 (stereo not given) . Reported TGI?
Outgoing: > 100 µM
